System: CYP1A2
experimentalDetails: Stability in human cryopreserved hepatocytes with or without CYP1A2 inhibitors (assays 1 to 3)
experimentalContext: human, hepatocytes, CLint, assay 2, furafylline 1 µM
parameterMeasured: hepatocyte CLint at 1 µM (µL/min/1e6 cells)
Answers are plain numbers, in µL/min/1e6 cells.

Task: Which measured hepatocyte CLint at 1 µM belongs to COC(=O)Nc1nc2cc(C(=O)c3ccc(F)cc3)ccc2[nH]1 , tested on CYP1A2?
Result: 2.05
